# Protocol Text: LD50 acute toxicity in mice (Litchfield and Wilcoxon)
# Format: in vivo
# Experimental Parameters: mouse, in vivo, po; female NMRI mice 20-30 g; 10 days observation

Compound	Unit String	LD50 at 240 h
CCCCC(CC)CN1CN(CC(CC)CCCC)CC(C)(N)C1 (stereo not shown)	mg/kg	960
